All figures here come from patent US10501734B2.

Tested on: tRNA
experiment: Aminoacylation assay (tRNA charging)
Format: biochemical
assay context: nsAA pAzF
Experimental: Template plasmid containing tRNA gene was purified with the plasmid maxi kit (Qiagen), and 100 μg of plasmid was digested with BstNI (New England Biolabs). The BstNI digested template DNA was purified by phenol chloroform extraction, followed by ethanol precipitation and resolved in double distilled water. […] The ratio of aminoacylated tRNA to total tRNA was determined to monitor reaction progress. […]
endpoint name: Km (µM)
Provide the reading as a plain figure in µM.

Some solved entries appear below for comparison.
molecule	unit info	Km
pAcFRS.2.t1: pAcFRS variant L65V, A167D, R257G, SEQ ID NO: 8 (protein) MDEFEMIKRNTSEIISEEELREVLKKDEKSALIGFEPSGKIHLGHYLQIKKMIDLQNAGFDIIIVLADLHAYLNQKGELDEIRKIGDYNKKVFEAMGLKAKYVYGSEFQLDKDYTLNVYRLALKTTLKRARRSMELIAREDENPKVAEVIYPIMQVNGCHYRGVDVDVGGMEQRKIHMLARELLPKKVVCIHNPVLTGLDGEGKMSSSKGNFIAVDDSPEEIRAKIKKAYCPAGVVEGNPIMEIAKYFLEYPLTIKGPEKFGGDLTVNSYEELESLFKNKELHPMRLKNAVAEELIKILEPIRKRL	µM	24
pAcFRS.1: pAcFRS variant A167D, SEQ ID NO: 2 (protein) MDEFEMIKRNTSEIISEEELREVLKKDEKSALIGFEPSGKIHLGHYLQIKKMIDLQNAGFDIIILLADLHAYLNQKGELDEIRKIGDYNKKVFEAMGLKAKYVYGSEFQLDKDYTLNVYRLALKTTLKRARRSMELIAREDENPKVAEVIYPIMQVNGCHYRGVDVDVGGMEQRKIHMLARELLPKKVVCIHNPVLTGLDGEGKMSSSKGNFIAVDDSPEEIRAKIKKAYCPAGVVEGNPIMEIAKYFLEYPLTIKRPEKFGGDLTVNSYEELESLFKNKELHPMRLKNAVAEELIKILEPIRKRL	µM	31
pAzFRS.2: pAcFRS variant E107T, F108Y, Q109M, SEQ ID NO: 13 (protein) MDEFEMIKRNTSEIISEEELREVLKKDEKSALIGFEPSGKIHLGHYLQIKKMIDLQNAGFDIIILLADLHAYLNQKGELDEIRKIGDYNKKVFEAMGLKAKYVYGSTYMLDKDYTLNVYRLALKTTLKRARRSMELIAREDENPKVAEVIYPIMQVNGCHYRGVDVAVGGMEQRKIHMLARELLPKKVVCIHNPVLTGLDGEGKMSSSKGNFIAVDDSPEEIRAKIKKAYCPAGVVEGNPIMEIAKYFLEYPLTIKRPEKFGGDLTVNSYEELESLFKNKELHPMRLKNAVAEELIKILEPIRKRL	µM	32

Please turn your attention to the following entry.
Which Km reading was recorded for the molecule pAzFRS.2.t1: pAcFRS variant E107T, F108Y, Q109M, R257G, SEQ ID NO: 14 (protein) MDEFEMIKRNTSEIISEEELREVLKKDEKSALIGFEPSGKIHLGHYLQIKKMIDLQNAGFDIIILLADLHAYLNQKGELDEIRKIGDYNKKVFEAMGLKAKYVYGSTYMLDKDYTLNVYRLALKTTLKRARRSMELIAREDENPKVAEVIYPIMQVNGCHYRGVDVAVGGMEQRKIHMLARELLPKKVVCIHNPVLTGLDGEGKMSSSKGNFIAVDDSPEEIRAKIKKAYCPAGVVEGNPIMEIAKYFLEYPLTIKGPEKFGGDLTVNSYEELESLFKNKELHPMRLKNAVAEELIKILEPIRKRL ?
14
